target of assay: EP4 receptor (Homo sapiens)
Sequence (P35408 whole entry): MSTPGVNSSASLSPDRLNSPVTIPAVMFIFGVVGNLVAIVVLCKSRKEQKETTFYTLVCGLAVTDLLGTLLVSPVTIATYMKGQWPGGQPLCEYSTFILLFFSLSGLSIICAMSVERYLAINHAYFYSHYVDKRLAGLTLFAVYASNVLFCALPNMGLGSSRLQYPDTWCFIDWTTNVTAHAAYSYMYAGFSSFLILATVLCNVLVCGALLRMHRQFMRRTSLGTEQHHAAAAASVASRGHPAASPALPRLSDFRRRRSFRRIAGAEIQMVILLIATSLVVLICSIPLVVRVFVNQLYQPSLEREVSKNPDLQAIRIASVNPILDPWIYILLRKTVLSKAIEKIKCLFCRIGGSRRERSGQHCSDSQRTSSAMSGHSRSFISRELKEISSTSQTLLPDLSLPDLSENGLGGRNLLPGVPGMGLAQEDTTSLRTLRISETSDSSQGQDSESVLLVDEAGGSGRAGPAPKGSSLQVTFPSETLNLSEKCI
protocol notes: PG receptor antagonism, EP4
Assay type: biochemical
Parameters: unit not given here
measurement parameters: antagonist activity at EP4 receptor
EP4 reference

// below: answered compounds
compound="O=C(/C=C/c1ccc(F)cc1C[C@@H]1C(c2nc(C(=O)NCCCCC3CCCCC3)co2)C2CC[C@H]1O2)NS(=O)(=O)CC(F)(F)F (stereo partly drawn) [Example 4]" result=80
compound="CCS(=O)(=O)NC(=O)/C=C/c1ccc(F)cc1C[C@@H]1C(c2nc(C(=O)NCCCCC3CCCCC3)co2)C2CC[C@H]1O2 (stereo partly drawn) [Example 2]" result=140

Could you now consider this next compound?
get_value(item= CCCCCCCCCNC(=O)c1coc(C2C3CCC(O3)C2Cc2cc(F)ccc2CCC(=O)NS(=O)(=O)C(F)(F)F)n1 (stereo not drawn) [Example 8] , readout=EP4) returns 30

* * *

EP1 reference
target of assay: EP1 receptor (Homo sapiens, UniProt P34995)
Sequence (P34995 whole entry): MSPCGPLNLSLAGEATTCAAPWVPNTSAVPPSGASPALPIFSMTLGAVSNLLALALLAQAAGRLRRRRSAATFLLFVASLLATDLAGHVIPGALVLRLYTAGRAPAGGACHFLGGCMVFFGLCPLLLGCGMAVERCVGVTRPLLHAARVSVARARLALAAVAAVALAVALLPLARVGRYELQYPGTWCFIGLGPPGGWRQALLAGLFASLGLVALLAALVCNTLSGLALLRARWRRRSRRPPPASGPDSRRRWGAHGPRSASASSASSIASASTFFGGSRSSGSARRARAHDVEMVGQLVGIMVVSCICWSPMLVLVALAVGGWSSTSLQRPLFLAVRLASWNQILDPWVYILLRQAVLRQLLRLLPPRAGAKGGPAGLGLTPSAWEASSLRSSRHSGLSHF
protocol notes: PG receptor antagonism, EP1
Type: biochemical
Parameters: unit not given here
measurement parameters: antagonist activity at EP1 receptor
Keep the answer to the number alone.

// below: answered compounds
compound="O=C(/C=C/c1ccc(F)cc1C[C@@H]1C(c2nc(C(=O)NCCCCC3CCCCC3)co2)C2CC[C@H]1O2)NS(=O)(=O)c1ccccc1 (stereo partly shown) [Example 6]" numeric_readout=60
compound="O=C(O)/C=C/c1ccc(F)cc1C[C@@H]1C(c2nc(C(=O)NCCCCC3CCCCC3)co2)C2CC[C@H]1O2 (stereo partly shown) [Example 1]" numeric_readout=380
compound="CCCCCCCCCNC(=O)c1coc(C2C3CCC(O3)C2Cc2cc(F)ccc2CCC(=O)NS(=O)(=O)C(F)(F)F)n1 (stereo not shown) [Example 8]" numeric_readout=40
compound="CS(=O)(=O)NC(=O)/C=C/c1ccc(F)cc1C[C@@H]1C(c2nc(C(=O)NCCCCC3CCCCC3)co2)C2CC[C@H]1O2 (stereo partly shown) [Example 3]" numeric_readout=65
compound="O=C(/C=C/c1ccc(F)cc1C[C@@H]1C(c2nc(C(=O)NCCCCC3CCCCC3)co2)C2CC[C@H]1O2)NS(=O)(=O)CC(F)(F)F (stereo partly shown) [Example 4]" numeric_readout=50

get_value(item= CCS(=O)(=O)NC(=O)/C=C/c1ccc(F)cc1C[C@@H]1C(c2nc(C(=O)NCCCCC3CCCCC3)co2)C2CC[C@H]1O2 (stereo partly shown) [Example 2] , readout=EP1) returns 190

get_value(item= CCCCCCCCNC(=O)c1coc(C2C3CCC(O3)C2Cc2cc(F)ccc2/C=C/C(=O)NS(=O)(=O)CC)n1 (stereo not shown) [Example 7] , readout=EP1) returns 80

* * *

target of assay: FP receptor (Homo sapiens, UniProt P43088)
Sequence (P43088 whole entry): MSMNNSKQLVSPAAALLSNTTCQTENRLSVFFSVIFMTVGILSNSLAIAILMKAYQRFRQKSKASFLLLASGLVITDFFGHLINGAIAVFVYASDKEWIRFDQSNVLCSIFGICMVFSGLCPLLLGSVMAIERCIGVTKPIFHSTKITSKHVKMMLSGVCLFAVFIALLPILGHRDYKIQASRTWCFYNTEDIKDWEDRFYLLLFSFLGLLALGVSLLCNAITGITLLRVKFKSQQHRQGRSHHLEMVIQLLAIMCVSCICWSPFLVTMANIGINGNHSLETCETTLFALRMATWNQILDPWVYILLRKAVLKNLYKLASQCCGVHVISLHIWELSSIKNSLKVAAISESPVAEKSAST
protocol notes: PG receptor antagonism, FP
Format: biochemical
Parameters: unit not given here
measurement parameters: antagonist activity at FP receptor
quantity: FP
Keep the answer to the number alone.

// below: answered molecules
molecule="CCS(=O)(=O)NC(=O)/C=C/c1ccc(F)cc1C[C@@H]1C(c2nc(C(=O)NCCCCC3CCCCC3)co2)C2CC[C@H]1O2 (stereo partly shown) [Example 2]" target_of_assay="FP receptor (Homo sapiens, UniProt P43088)" numeric_readout=100
molecule="CS(=O)(=O)NC(=O)/C=C/c1ccc(F)cc1C[C@@H]1C(c2nc(C(=O)NCCCCC3CCCCC3)co2)C2CC[C@H]1O2 (stereo partly shown) [Example 3]" target_of_assay="FP receptor (Homo sapiens, UniProt P43088)" numeric_readout=90
molecule="O=C(/C=C/c1ccc(F)cc1C[C@@H]1C(c2nc(C(=O)NCCCCC3CCCCC3)co2)C2CC[C@H]1O2)NS(=O)(=O)c1ccccc1 (stereo partly shown) [Example 6]" target_of_assay="FP receptor (Homo sapiens, UniProt P43088)" numeric_readout=100
molecule="CCCCCCCCCNC(=O)c1coc(C2C3CCC(O3)C2Cc2cc(F)ccc2CCC(=O)NS(=O)(=O)C(F)(F)F)n1 (stereo not shown) [Example 8]" target_of_assay="FP receptor (Homo sapiens, UniProt P43088)" numeric_readout=50

get_value(item= CCCCCCCCNC(=O)c1coc(C2C3CCC(O3)C2Cc2cc(F)ccc2/C=C/C(=O)NS(=O)(=O)CC)n1 (stereo not shown) [Example 7] , readout=FP) returns 370

get_value(item= O=C(/C=C/c1ccc(F)cc1C[C@@H]1C(c2nc(C(=O)NCCCCC3CCCCC3)co2)C2CC[C@H]1O2)NS(=O)(=O)CC(F)(F)F (stereo partly shown) [Example 4] , readout=FP) returns 130

get_value(item= O=C(O)/C=C/c1ccc(F)cc1C[C@@H]1C(c2nc(C(=O)NCCCCC3CCCCC3)co2)C2CC[C@H]1O2 (stereo partly shown) [Example 1] , readout=FP) returns 60

* * *

target of assay: EP3 receptor (Homo sapiens, UniProt P43115)
Sequence (P43115 1-390): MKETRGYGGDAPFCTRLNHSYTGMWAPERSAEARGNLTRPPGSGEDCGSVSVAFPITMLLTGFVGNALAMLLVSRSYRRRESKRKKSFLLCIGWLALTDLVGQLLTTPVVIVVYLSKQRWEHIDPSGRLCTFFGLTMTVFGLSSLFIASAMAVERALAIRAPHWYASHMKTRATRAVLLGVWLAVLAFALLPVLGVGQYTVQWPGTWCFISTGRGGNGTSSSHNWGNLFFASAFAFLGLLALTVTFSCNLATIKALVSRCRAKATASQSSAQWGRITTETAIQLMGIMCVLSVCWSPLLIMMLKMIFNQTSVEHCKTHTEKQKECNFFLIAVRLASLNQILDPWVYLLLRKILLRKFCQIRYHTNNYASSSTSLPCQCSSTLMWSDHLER
protocol notes: PG receptor antagonism, EP3
Type: biochemical
Set-up: unit not given here
measurement parameters: antagonist activity at EP3 receptor
quantity: EP3
Keep the answer to the number alone.

// below: answered molecules
molecule="CCCCCCCCNC(=O)c1coc(C2C3CCC(O3)C2Cc2cc(F)ccc2/C=C/C(=O)NS(=O)(=O)CC)n1 (stereo not shown)" target_of_assay="EP3 receptor (Homo sapiens, UniProt P43115)" quantity=EP3 numeric_readout=1900
molecule="O=C(/C=C/c1ccc(F)cc1C[C@@H]1C(c2nc(C(=O)NCCCCC3CCCCC3)co2)C2CC[C@H]1O2)NS(=O)(=O)CC(F)(F)F (stereo partly shown)" target_of_assay="EP3 receptor (Homo sapiens, UniProt P43115)" quantity=EP3 numeric_readout=2500
molecule="CS(=O)(=O)NC(=O)/C=C/c1ccc(F)cc1C[C@@H]1C(c2nc(C(=O)NCCCCC3CCCCC3)co2)C2CC[C@H]1O2 (stereo partly shown)" target_of_assay="EP3 receptor (Homo sapiens, UniProt P43115)" quantity=EP3 numeric_readout=790
molecule="CCS(=O)(=O)NC(=O)/C=C/c1ccc(F)cc1C[C@@H]1C(c2nc(C(=O)NCCCCC3CCCCC3)co2)C2CC[C@H]1O2 (stereo partly shown)" target_of_assay="EP3 receptor (Homo sapiens, UniProt P43115)" quantity=EP3 numeric_readout=1600
molecule="O=C(/C=C/c1ccc(F)cc1C[C@@H]1C(c2nc(C(=O)NCCCCC3CCCCC3)co2)C2CC[C@H]1O2)NS(=O)(=O)c1ccccc1 (stereo partly shown)" target_of_assay="EP3 receptor (Homo sapiens, UniProt P43115)" quantity=EP3 numeric_readout=290
molecule="O=C(O)/C=C/c1ccc(F)cc1C[C@@H]1C(c2nc(C(=O)NCCCCC3CCCCC3)co2)C2CC[C@H]1O2 (stereo partly shown)" target_of_assay="EP3 receptor (Homo sapiens, UniProt P43115)" quantity=EP3 numeric_readout=5500

Could you now consider this next molecule?
get_value(item= CCCCCCCCCNC(=O)c1coc(C2C3CCC(O3)C2Cc2cc(F)ccc2CCC(=O)NS(=O)(=O)C(F)(F)F)n1 (stereo not shown) , readout=EP3) returns 700

* * *

target of assay: DP receptor (Homo sapiens, UniProt Q13258)
Sequence (Q13258 1-359): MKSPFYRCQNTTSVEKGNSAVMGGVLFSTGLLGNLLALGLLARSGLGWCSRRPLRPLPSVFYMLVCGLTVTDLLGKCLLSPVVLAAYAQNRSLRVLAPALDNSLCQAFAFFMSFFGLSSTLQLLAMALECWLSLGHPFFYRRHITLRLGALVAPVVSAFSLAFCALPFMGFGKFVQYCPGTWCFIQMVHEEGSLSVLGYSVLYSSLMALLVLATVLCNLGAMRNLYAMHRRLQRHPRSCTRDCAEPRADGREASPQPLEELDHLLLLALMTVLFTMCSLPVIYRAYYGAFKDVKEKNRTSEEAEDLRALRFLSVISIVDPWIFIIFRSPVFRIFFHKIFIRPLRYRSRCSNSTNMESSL
protocol notes: PG receptor antagonism, DP
Assay type: biochemical
Set-up: unit not given here
measurement parameters: antagonist activity at DP receptor
DP reference
Keep the answer to the number alone.

compound="O=C(/C=C/c1ccc(F)cc1C[C@@H]1C(c2nc(C(=O)NCCCCC3CCCCC3)co2)C2CC[C@H]1O2)NS(=O)(=O)CC(F)(F)F (stereo partly drawn)" quantity=DP numeric_readout=80
compound="CS(=O)(=O)NC(=O)/C=C/c1ccc(F)cc1C[C@@H]1C(c2nc(C(=O)NCCCCC3CCCCC3)co2)C2CC[C@H]1O2 (stereo partly drawn)" quantity=DP numeric_readout=30

Could you now consider this next compound?
get_value(item= O=C(/C=C/c1ccc(F)cc1C[C@@H]1C(c2nc(C(=O)NCCCCC3CCCCC3)co2)C2CC[C@H]1O2)NS(=O)(=O)c1ccccc1 (stereo partly drawn) , readout=DP) returns 60
